All figures here come from patent US20210032312A1.

- Assay Target: T1, cynomolgus monkey CD8A on primary cynomolgus monkey CD8+ T cells (cynomolgus monkey, UniProt P01732 23-235 (human entry))
- T1 construct: also called Cyno CD8alpha
- T1 sequence (P01732 other isoform, or with tags, fused parts or gaps limits assumed): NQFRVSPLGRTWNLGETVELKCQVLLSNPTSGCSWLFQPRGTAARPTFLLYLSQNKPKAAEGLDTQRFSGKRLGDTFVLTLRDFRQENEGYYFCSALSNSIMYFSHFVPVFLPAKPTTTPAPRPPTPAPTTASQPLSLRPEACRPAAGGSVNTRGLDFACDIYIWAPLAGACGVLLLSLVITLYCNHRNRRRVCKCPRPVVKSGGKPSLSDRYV
- Assay Text: flow cytometry, cyno CD8+ T cells, 0.2 uM FN3
Each entry below carries its recorded Cyno T-cell Binding 0.2 uM (MFI).
// note: answer is a bare numeric in MFI

Binder	Unit Name	Cyno T-cell Binding 0.2 uM (MFI)
P283BR9P1363_B2 (designed binder, FN3 domain) LPAPKNLVVSRVTEDSARLSWASTVDPHPRFDSFLIQYQESEKVGEAIVLTVPGSERSYDLTGLKPGTEYTVSIYGVDVKYDIDSRPISSNPLSAIFTT	MFI	2820
P282BR9P1357_B2 (designed binder, FN3 domain) LPAPKNLVVSRVTEDSARLSWNPSEDPQRFDSFLIQYQESEKVGEAIVLTVPGSERSYDLTGLKPGTEYTVSIYGVDVKWEGNRPVASNPLSAIFTT	MFI	3840
P282DR9P1359_D12 (designed binder, FN3 domain) LPAPKNLVVSRVTEDSARLSWTAPDAAFDSFRIAYPETATWGEAIVLTVPGSERSYDLTGLKPGTEYFVIIYGVKGGFESAPLSAIFTT	MFI	1750
P283AR9P1362_B10 (designed binder, FN3 domain) LPAPKNLVVSRVTEDSARLSWKRRWDSFDSFLIQYQESEKVGEAIVLTVPGSERSYDLTGLKPGTEYTVSIYGVDVEWFNGLPHHSNPLSAIFTT	MFI	8380

GET /value?item= P283BR9P1363_A10 (designed binder, FN3 domain) LPAPKNLVVSRVTEDSARLSWQRADDILPYFDSFLIQYQESEKVGEAIVLTVPGSERSYDLTGLKPGTEYTVSIYGVDVKYDIDSRPISSNPLSAIFTT &field=Cyno T-cell Binding 0.2 uM (MFI) returns 4100

Just so you know, measured Cyno T-cell Binding 0.2 uM (MFI) for P282FR9P1361_A3 (designed binder, FN3 domain) LPAPKNLVVSRVTEDSARLSWTAPDAAFDSFDIWYAEYGYPGEAIVLTVPGSERSYDLTGLKPGTEYDVAIVGVKGGNRSYPLSAIFTT came out at 740

binder P282AR9P1356_A10 (designed binder, FN3 domain) LPAPKNLVVSRVTEDSARLSWHTATNSFDSFLIQYQESEKVGEAIVLTVPGSERSYDLTGLKPGTEYTVSIYGVDVDYNPTGRPVSSNPLSAIFTT , Cyno T-cell Binding 0.2 uM (MFI) observed: 3120

Value of Cyno T-cell Binding 0.2 uM (MFI) reported for the binder P282BR9P1357_A9 (designed binder, FN3 domain) LPAPKNLVVSRVTEDSARLSWKANRTTDLHFDSFLIQYQESEKVGEAIVLTVPGSERSYDLTGLKPGTEYTVSIYGVDVQYDGQQPLYSNPLSAIFTT is 1940

Measured Cyno T-cell Binding 0.2 uM (MFI), P282ER9P1360_D11 (designed binder, FN3 domain) LPAPKNLVVSRVTEDSARLSWTAPDAAFDSFGILYYEPVDSGEAITLPVPGSERSYDLTGLKPGTEYFVIIVGVKGGYPSIPLGAAFTT : 1940
